Where these numbers come from: PubChem BioAssay AID248

Test system: L1210 leukemia ip in BDF1 mice, survival T/C
MEASUREMENT PROTOCOL: NCI In Vivo Anticancer Drug Screen. Data for tumor model L1210 Leukemia (intraperitoneal) in B6D2F1 (BDF1) mice
TEST CONTEXT: endpoint: mean survival time; dose: 100.0 mg/kg/injection; schedule: Q04DX002 (ip); vehicle: Klucel (hydroxypropylcellulose) (HPC); higher = longer survival
Toxic doses and inconclusive results are not listed.
I'd appreciate it if you could supply T/C values for the items below.

Entry C[C@@]1(C(=O)O)CC2C=CC1C2 (some centres undefined) : reported T/C = ?
96 % of control

Bench note: what T/C did CCCCCCCCCCCCC(C)C(=O)O (centres undefined) show?
101 % of control

For the molecule shown here, NC(CSS(=O)(=O)O)=NCc1ccccn1 , give the reported T/C.
95 % of control

# input molecule: Cc1ccc(C)c(Cn2cnc3c(=S)nc[nH]c32)c1 ; wanted: its T/C
94 % of control

Data request, read-out T/C, for [Br][Bi]([Br])([c]1ccccc1)([c]1ccccc1)[c]1ccccc1
97 % of control

Name the reported T/C value associated with the molecule CCCCCCCCCC(=O)c1ccccc1
96 % of control

Quick check: T/C of C1C2CC3CC1CC(C2)C31CO1 (centres undefined) ?
90 % of control

Return reported T/C; argument: ClCCN(CCCl)c1ccc(C=Nc2cc(Cl)ccc2-n2ccnc2)c(Cl)c1
98 % of control

Bench note: what T/C did CSc1ccc(NC(N)=O)cc1 show?
103 % of control

Look up T/C for this molecule: COc1cc2c[n+](C)c3c4cc5c(cc4ccc3c2cc1OC)OCO5
111 % of control

Form field: reported T/C of CN(CC#CCOc1ccc(Cl)cc1Cl)c1ccccc1
102 % of control

So what does the record say about T/C for CCCCS(=O)(=O)N1CCCC(C)C1 (centres undefined) ?
100 % of control

Name the recorded T/C for CNc1n[nH]c(=S)s1 .
101 % of control

Which T/C is reported for this molecule? Cc1ccc(C)c(OC(=O)Nc2cccc(C(F)(F)F)c2)c1
105 % of control

====

System: L1210 leukemia ip in BDF1 mice, survival T/C
MEASUREMENT PROTOCOL: NCI In Vivo Anticancer Drug Screen. Data for tumor model L1210 Leukemia (intraperitoneal) in B6D2F1 (BDF1) mice
TEST CONTEXT: endpoint: mean survival time; dose: 400.0 mg/kg/injection; schedule: Q01DX009 (ip); vehicle: Klucel (hydroxypropylcellulose) (HPC); higher = longer survival
Protocol: The antitumor activity of compounds was measured in mice bearing transplantable tumors. Survival or tumor size were measured and the results are expressed as the measurement made in the treated group (T) divided by the measurement made in the vehicle treated control group (C). The tumor model used in this assay is L1210 Leukemia (intraperitoneal) in B6D2F1 (BDF1) mice
Inconclusive results and toxic doses are left out.
RESULT TYPE: T/C

Give its T/C value. Item: O=[N+]([O-])c1ccc(F)c(CNc2ncnc3c2ncn3C2CCCCO2)c1 (stereo unspecified)
100 % of control

Which T/C value belongs to CNC(=O)Nc1c(C)cccc1Cl ?
105 % of control

# get_value(readout='T/C', item= CCOC(=O)C(NC(N)=O)C(=O)OCC )
101 % of control

Give its T/C value. Item: Cc1ccc(NC(=O)/C=C\C(=O)O)cc1
91 % of control

I would be grateful if you could share the reported T/C for CNC(=O)Nc1cccc2c(=O)[nH][nH]c(=O)c12 .
86 % of control

Given CC1CCCN(C(=O)Nc2cccc(Cl)c2Cl)C1 (stereo unspecified) , state its recorded T/C.
96 % of control

Look up T/C: COc1ccc2c(c1)CCC1=C2CCC2C(=O)OC(=O)C12C (stereo unspecified)
101 % of control

# lookup: T/C of N#Cc1ccncc1
96 % of control

May I ask what T/C has been recorded for CN1C(=O)NC2ON=C(c3ccccc3)C2C1=O (stereo unspecified) ?
104 % of control

Look at this compound and give its reported T/C. C(=N\C(/N=C/c1ccco1)c1ccco1)/c1ccco1
97 % of control

Endpoint output: T/C of CN(C)c1ccc(C(/C=N\O)(c2ccc(N(C)C)cc2)c2ccc(N(C)C)cc2)cc1 . Value?
101 % of control

Requested read-out: T/C. Entry: CN(C)C(=O)Nc1cccc2nsnc12
102 % of control

I am curious: what T/C value has been reported for O=C(Nc1ccccc1)OCC(Cl)(Cl)Cl ?
100 % of control

Recorded T/C of O=C(Nc1ccc(Cl)c([N+](=O)[O-])c1)N(CC(O)c1ccccc1)C1CCCCC1 (stereo unspecified) , please.
87 % of control

What measured T/C goes with O=C(Nc1ccc(Cl)c(Cl)c1)Oc1ccc(C2CCCCC2)cc1 ?
97 % of control

Name the reported T/C value associated with the compound CCCCCCC(=O)/C=C/C=C/c1ccccc1
100 % of control

====

Exercise: for every item that follows, state its recorded T/C.
System: L1210 leukemia ip in BDF1 mice, survival T/C
MEASUREMENT PROTOCOL: NCI In Vivo Anticancer Drug Screen. Data for tumor model L1210 Leukemia (intraperitoneal) in B6D2F1 (BDF1) mice
TEST CONTEXT: endpoint: mean survival time; dose: 400.0 mg/kg/injection; schedule: Q04DX003 (ip); vehicle: saline; higher = longer survival
Protocol: The antitumor activity of compounds was measured in mice bearing transplantable tumors. Survival or tumor size were measured and the results are expressed as the measurement made in the treated group (T) divided by the measurement made in the vehicle treated control group (C). The tumor model used in this assay is L1210 Leukemia (intraperitoneal) in B6D2F1 (BDF1) mice
Inconclusive results and toxic doses are left out.

Name the recorded T/C for C1OCC2(CO1)COCOC2 .
105 % of control

// returns reported T/C for input CCCCCCCCCC(=O)NO
86 % of control

What value of T/C has been recorded for this entry: CC(=O)Nc1ccc[n+](C)c1
100 % of control

Value lookup for T/C; key = CCN(Cc1ccccc1)C(=S)[S-].CCN(Cc1ccccc1)C(=S)[S-].[Zn]
89 % of control

Would you mind telling me what T/C value was observed for CC(C)N=Cc1cc(I)cc(I)c1O.CC(C)N=Cc1cc(I)cc(I)c1O.[Co] ?
102 % of control

Entry CCOC(=O)N1Cc2cc3cc4c(cc3nc2C1)OCO4 : reported T/C = ?
96 % of control

# get_value(readout='T/C', item= CC1(C)NC(=O)N(CCO)C1=O )
101 % of control

May I ask what T/C has been recorded for Cc1cc(C)c(C(C)C)cc1C(C)C ?
90 % of control

====

System: L1210 leukemia ip in BDF1 mice, survival T/C
MEASUREMENT PROTOCOL: NCI In Vivo Anticancer Drug Screen. Data for tumor model L1210 Leukemia (intraperitoneal) in B6D2F1 (BDF1) mice
TEST CONTEXT: endpoint: mean survival time; dose: 200.0 mg/kg/injection; schedule: Q01DX009 (ip); vehicle: saline with Tween-80; higher = longer survival
Toxic doses and inconclusive results are not listed.
RESULT TYPE: T/C

Item under review: COC(=O)C12N=NN(c3ccccc3)C1(C(=O)OC)C1CCC2C1 (stereo unspecified) . Reported T/C?
94 % of control

Give its T/C value. Item: CCOC(=O)c1ccc(NC(=S)NC(=O)/C=C/c2ccccc2)cc1
100 % of control

Please report the recorded T/C for Nc1ccc(C(=O)O)c(O)c1 .
97 % of control

Value lookup for T/C; key = COc1ccccc1NC(=O)Nc1ccccc1Cl
112 % of control

Please report the recorded T/C for CC(O)c1cccc([N+](=O)[O-])c1 (stereo unspecified) .
94 % of control

// lookup T/C for CC(C)OC(=S)SSc1nc2ccccc2s1
96 % of control

====

System: L1210 leukemia ip in BDF1 mice, survival T/C
MEASUREMENT PROTOCOL: NCI In Vivo Anticancer Drug Screen. Data for tumor model L1210 Leukemia (intraperitoneal) in B6D2F1 (BDF1) mice
TEST CONTEXT: endpoint: mean survival time; dose: 50.0 mg/kg/injection; schedule: Q01DX009 (ip); vehicle: Klucel (hydroxypropylcellulose) (HPC); higher = longer survival
Inconclusive results and toxic doses are left out.
Task for the reader: assign each of the following compounds its reported T/C.

Using the record for O=C(NNc1ccccc1)c1ccccc1 , report its T/C.
101 % of control

What measured T/C goes with C=C(C)CCC1C(=O)N(c2ccccc2)N(c2ccccc2)C1=O ?
95 % of control

T/C lookup needed for [O-][n+]1ccc2ccccc2c1 , thanks.
101 % of control

Item C(=C\c1nc2ccccc2nc1/C=C/c1ccc2c(c1)OCO2)/c1ccc2c(c1)OCO2 has what recorded T/C?
100 % of control

Given the entry O/N=C\c1ccccc1 , report its measured T/C.
92 % of control

Quick one: T/C of CC1=Nc2ccccc2/C1=C\c1c(C)[nH]c2ccccc12 ?
97 % of control

Looking for the measured T/C of COc1ccc2c(c1)c(-n1cc([N+](=O)[O-])nc1C)c(C)n2C(=O)c1ccc(Cl)cc1 , can you help?
97 % of control
